In this section, each of the molecules is paired with its reported IC50.
# TARGET_UNDER_TEST: CDK2/Cyclin A1 (Homo sapiens)
# PROCEDURE_SUMMARY: Inhibition of human CDK2/Cyclin A1 using histone H1 as substrate preincubated for 20 mins followed by [gamma-33P]-ATP addition measure after 120 mins by filter binding method
VALUE_TYPE: IC50 (nM)

• CCN(CC)Cc1ccc(NC(=O)c2n[nH]cc2Nc2ncnc3sccc23)cc1 = 1.59
• Cc1csc2ncnc(Nc3c[nH]nc3C(=O)Nc3ccc(CN4CCN(C)CC4)cc3)c12 = 4.49
• O=C(Nc1ccc(CNC2CC2)cc1)c1n[nH]cc1Nc1ncnc2sccc12 = 2.05
• O=C(Nc1ccc(CN2CCOCC2)cc1)c1n[nH]cc1Nc1ncnc2ccsc12 = 11.6
• CN1CCCN(Cc2ccc(NC(=O)c3n[nH]cc3Nc3ncnc4sccc34)cc2)CC1 = 3.03
• Cc1sc2ncnc(Nc3c[nH]nc3C(=O)Nc3ccc(CN4CCOCC4)cc3)c2c1C = 7.34
• CN1CCN(Cc2ccc(NC(=O)c3n[nH]cc3Nc3ncnc4ccsc34)cc2)CC1 = 9.32
• CN1CCN(Cc2ccc(NC(=O)c3n[nH]cc3Nc3ncnc4occc34)cc2)CC1 = 16.5
• O=C(Nc1ccc(CN2CCOCC2)cc1)c1n[nH]cc1Nc1ncnc2[nH]ccc12 = 7.25
• CN1CCN(Cc2ccc(NC(=O)c3n[nH]cc3Nc3ncnc4[nH]ccc34)cc2)CC1 = 2.47
• CN1CCN(Cc2ccc(NC(=O)c3n[nH]cc3Nc3ncnc4ccccc34)cc2)CC1 = 8.27
• O=C(Nc1ccc(CN2CCNCC2)cc1)c1n[nH]cc1Nc1ncnc2[nH]ccc12 = 4.49
• O=C(Nc1ccc(CN2CCOCC2)cc1)c1n[nH]cc1Nc1nccc2ccccc12 = 287
• CC(C)c1cc2c(Nc3c[nH]nc3C(=O)Nc3ccc(CN4CCN(C)CC4)cc3)ncnc2s1 = 3.89
• CCN(CC)Cc1ccc(NC(=O)c2n[nH]cc2Nc2ncnc3[nH]ccc23)cc1 = 13.6
• O=C(Nc1ccc(CN2CCOCC2)cc1)c1n[nH]cc1Nc1ccnc2ccc(Br)cc12 = 24.1
• Cc1csc2ncnc(Nc3c[nH]nc3C(=O)Nc3ccc(CN4CCOCC4)cc3)c12 = 1.08
• CCc1cc2c(Nc3c[nH]nc3C(=O)Nc3ccc(CN4CCOCC4)cc3)ncnc2s1 = 3.3
• O=C(Nc1ccc(CN2CCOCC2)cc1)c1n[nH]cc1Nc1ncnc2sccc12 = 3.36
• CN1CCN(Cc2ccc(NC(=O)c3n[nH]cc3Nc3ccnc4ccc(Br)cc34)cc2)CC1 = 5.74
